Test system: CCRF-CEM leukemia
procedure-details: NCI-60 one-dose screen, 48 h
condition-notes: 10 µM unless noted
Compounds without any hit were thinned out: in the full panel of roughly 83,000, 20% have a hit. Activity calls are given as the source filed them. How the source made its calls: active means growth percent below 10; inactive means the rest.
API: response.call in class 1 (active), class 0 (inactive)

Tell me the recorded outcome of this test for `CC(C)(C#N)c1cc(F)cc(C(=O)Nc2cc(Nc3ncccc3-c3ncnc4nc[nH]c34)ccc2F)c1` .
class 0

Tell me the recorded outcome of this test for Cc1ccc(C2CC(c3ccc(Nc4nc(NCCO)nc(NCCO)n4)cc3)=NN2c2ccc(Cl)cc2)cc1 (centres undefined) .
class 0

Tell me the recorded outcome of this test for `O=C1C(Cl)=C(Nc2ccc3c(c2NC2=C(Cl)C(=O)c4ccccc4C2=O)C(=O)c2ccccc2C3=O)C(=O)c2ccccc21` .
class 0

Tell me the recorded outcome of this test for `NC(=O)c1ccc2nc3c(n2c1)C(=O)C(=O)c1ccccc1-3` .
class 1

====

Tested on: M14 melanoma
procedure-details: NCI-60 one-dose screen, 48 h (100 = growth as untreated, 0 = no growth, -100 = all killed)
condition-notes: 10 µM unless noted
This is part of a sample that, as a whole, favours compounds with a hit. Of some 83,000 tested, about 20% had one in any assay.
property-measured: growth (%)
The response must be a number in % with no trailing unit.

• Cc1nc2sc(C(=O)Nc3ccccc3)c(N)c2cc1C(C)O (stereo unspecified) = 16.2
• COc1ccc(-c2nnc(N3CCN(C(=O)CN4CCN(c5ccc(OC)cc5)CC4)CC3)nc2-c2ccc(OC)cc2)cc1 = -17.3
• COc1ccc(-n2nc(C(=O)NCC(=O)O)nc2-c2ccccc2)cc1 = 102
• O=S(=O)(O)c1ccc(N=NSc2ccc3ccccc3c2)cc1 = 92.9
• Nc1ccc(C2=NN(C(=O)c3cc(-c4ccc(Cl)cc4)nc4ccccc34)C(c3ccc(Cl)cc3)C2)cc1 (stereo unspecified) = 6.28

M14 melanoma growth of `Cc1nnc(/N=C2\NC(=O)/C(=C/c3ccc(N(C)C)cc3)S2)s1` is 51.1

M14 melanoma growth of `Cc1ccc(C(=O)O)o1` is 101

M14 melanoma growth of `COC(=O)c1oc2c(C(=O)/C=C/c3ccc(OC)cc3)c(OCCCN3CCCCC3)ccc2c1C` is -40.3

M14 melanoma growth of `COc1ccc2cc(/C=C3\N=C(c4cc(OC)c(OC)c(OC)c4)OC3=O)c(OC)nc2c1` is 111

====

Test system: SK-MEL-5 melanoma
procedure-details: NCI-60 one-dose screen, 48 h
condition-notes: 10 µM unless noted
This is part of a sample that, as a whole, favours compounds with a hit. Of some 83,000 tested, about 20% had one in any assay. Activity calls are given as the source filed them. The calls were made as follows: active = growth percent below 10; inactive = the rest.
API: response.call in active, inactive

Example entries and their recorded answers appear below.
- C(=C\c1cn(-c2ccccc2)nc1-c1ccccc1)/c1nnc(-c2c[nH]c3ccccc23)o1: inactive
- Cn1cc(-c2ccc3c(c2)ncn3-c2ccc(CC(=O)Nc3cc(C(C)(C)C)on3)cc2)cn1: inactive
- O=c1[nH]c2ccccc2cc1-c1nc2ccc(Cl)cc2[nH]1: inactive
- O=C1Nc2ccc(Br)cc2/C1=N\N=C/c1cn(Cc2ccccc2)c2ccccc12: inactive
- COc1ccc(-c2nnc(N3CCN(C(=O)CN4CCN(c5ccc(OC)cc5)CC4)CC3)nc2-c2ccc(OC)cc2)cc1: active
- O=C(Nc1ccc(S(=O)(=O)NC2CCCCCC2)cc1)C(c1ccccc1)S(=O)(=O)c1ccc(F)cc1 (centres undefined): active

Tell me the recorded outcome of this test for `Cc1[nH]c2ncnc(Oc3ccc(NC(=O)Nc4ccc(Cl)c(C(F)(F)F)c4)cc3)c2c1C` .
inactive

Tell me the recorded outcome of this test for `CC[C@H](Nc1ncnc2nc[nH]c12)c1nc2cccc(CC(=O)c3ccc(C(=O)NO)cc3)c2c(=O)n1-c1ccccc1` .
inactive

Tell me the recorded outcome of this test for `CCCn1cc(/C=N\N=C2\C(=O)Nc3ccc(C)cc32)c2ccccc21` .
inactive

====

Parameter growth: see the listing below.
Test system: COLO 205 colon
procedure-details: NCI-60 one-dose screen, 48 h (100 = growth as untreated, 0 = no growth, -100 = all killed)
condition-notes: 10 µM unless noted
This is part of a sample that, as a whole, favours compounds with a hit. Of some 83,000 tested, about 20% had one in any assay.
The response must be a number in % with no trailing unit.

Example entries and their recorded answers appear below.
• COc1cc(-c2csc(NC(=O)Nc3cc(Cl)cc(Cl)c3)n2)cc(OC)c1OC = 5.56
• C=C1C(=O)O[C@H]2[C@H]1CC/C(C=Nc1c(N)cc(F)cc1Br)=C\CC[C@@]1(C)O[C@@H]21 = 38.8
• COc1cc(C(=O)Nc2cc(OC)c3ccn(C)c3c2)cc2c1C[C@]1(C)CC[C@@H](O)C(C)(C)[C@H]1O2 = 3.69

Here is the next item to consider.
`C=C1C(=O)O[C@H]2[C@H]1CC/C(COC(=O)CCCCCCC(=O)OC/C1=C/CC[C@@]3(C)O[C@H]3[C@H]3OC(=O)C(=C)[C@@H]3CC1)=C\CC[C@@]1(C)O[C@@H]21` has a reported growth of -64.6

====

Test system: SK-MEL-2 melanoma
procedure-details: NCI-60 one-dose screen, 48 h (100 = growth as untreated, 0 = no growth, -100 = all killed)
condition-notes: 10 µM unless noted
Procedure: Growth inhibition of the SK-MEL-2 human tumor cell line is measured as a screen for anti-cancer activity. Cells are grown in 96 well plates and exposed to the test compound for 48 hours. Compounds are tested at a single concentration, which is 10^-5 M for most compounds. The reported endpoint is percent growth (GI% or GIPRCNT), where numbers from 0 - 100% represent growth inhibition, and numbers from -100% - 0 represent cell death. For example, a value of 40 represents 60% growth inhibition. […]
Compounds without any hit were thinned out: in the full panel of roughly 83,000, 20% have a hit.
property-measured: growth (%)
The response must be a number in % with no trailing unit.

• COc1cccc2c1-c1ccccc1C2=O = 34.3
• Cc1cccc(NC(=O)c2sc3nc4c(cc3c2N)CN(Cc2ccccc2)CC4)c1C = 30.3
• O=C(Nc1nccs1)c1noc2ccccc12 = 109

SK-MEL-2 melanoma growth of `NS(=O)(=O)c1ccc(N2Cc3cc(Cl)ccc3OC3=C2C(=O)N(CC2CCCCC2)C3=O)cc1` is -72.3

SK-MEL-2 melanoma growth of `COc1cc(NC(=O)Nc2cnc(Nc3ccc(N4CCOCC4)cc3)nc2Oc2ccc(C(F)(F)F)cc2)cc(OC)c1` is 108

SK-MEL-2 melanoma growth of `O=C1[C@@H](OS(=O)(=O)CC(F)(F)F)[C@H](c2ccc(F)cn2)N1c1cc2c3ccccc3ccc2c2ccccc12` is 89.9

SK-MEL-2 melanoma growth of `CC(C)(C#N)c1cc(F)cc(C(=O)Nc2cc(Nc3ncccc3-c3ncnc4nc[nH]c34)ccc2F)c1` is -12.8

SK-MEL-2 melanoma growth of COc1cc(C2=NN(C(C)=O)C(c3cccc(Nc4ccnc5cc(C(F)(F)F)ccc45)c3)C2)cc(OC)c1OC (centres undefined) is 81.4

SK-MEL-2 melanoma growth of CN(C)C(CNc1oc(-c2cccc3ccccc23)nc1C#N)c1ccco1 (centres undefined) is 95.9

====

Test system: SK-OV-3 ovarian
procedure-details: NCI-60 one-dose screen, 48 h (100 = growth as untreated, 0 = no growth, -100 = all killed)
condition-notes: 10 µM unless noted
Method: Growth inhibition of the SK-OV-3 human tumor cell line is measured as a screen for anti-cancer activity. Cells are grown in 96 well plates and exposed to the test compound for 48 hours. Compounds are tested at a single concentration, which is 10^-5 M for most compounds. The reported endpoint is percent growth (GI% or GIPRCNT), where numbers from 0 - 100% represent growth inhibition, and numbers from -100% - 0 represent cell death. For example, a value of 40 represents 60% growth inhibition. […]
About 83,000 compounds went through this panel and 20% of them were active in at least one assay; those are over-represented in the sample as a whole.
Parameter growth: see the listing below.
The response must be a number in % with no trailing unit.

Example entries and their recorded answers appear below.
* CCCCc1ccc(N=Nc2ccc(OCC[N+](C)(C)C)cc2)cc1 | 74.8
* O=C(NC[C@H](O)CN1CCc2ccccc2C1)c1cc(NC2COC2)ncn1 | 107
* C=CCn1c(SCC(=O)Nc2ccc(C(=O)/C=C/c3cc(OC)c(OC)c(OC)c3)cc2)nnc1-c1ccccc1 | 110
* S=C(Nc1ccc(Cl)cc1)c1ccccn1 | 94.3
* N#Cc1nc(-c2ccccc2)oc1S(=O)(=O)NCC(c1ccc(Cl)cc1)N1CCCCC1 (stereo not drawn) | 113

CCCCCCC/C=C/[C@H]1O[C@]23C(=O)C[C@@]4(C[C@@H](OC5OC(CO)C(O)C(O)C5O)C[C@@H]4[C@H]2C=C1C)OC3=O (stereo partly drawn) has a reported growth of 71.9

`Cc1nccc2c3ccc(OCc4cn(-c5ccc(Cl)cc5)nn4)cc3n(CC(C)C)c12` has a reported growth of 24.2

`C=C(C)[C@@H]1CC[C@]2(C(=O)OCCOCCOCC[P+](c3ccccc3)(c3ccccc3)c3ccccc3)CC[C@]3(C)[C@H](CC[C@@H]4[C@@]5(C)CC[C@H](OC(=O)C(Cl)Cl)C(C)(C)[C@@H]5CC[C@]43C)[C@@H]12` has a reported growth of -8.97

All figures here come from PubChem BioAssay (NCI).
